# Target Or Test System: IRAK4 (Homo sapiens)
# Construct: Degradation of IRAK4 in OCI-LY10 was quantitatively measured using Meso Scale Discovery technology; endogenous in cells; host or cells: OCI-LY10
# Sequence (Q9NWZ3 1-460): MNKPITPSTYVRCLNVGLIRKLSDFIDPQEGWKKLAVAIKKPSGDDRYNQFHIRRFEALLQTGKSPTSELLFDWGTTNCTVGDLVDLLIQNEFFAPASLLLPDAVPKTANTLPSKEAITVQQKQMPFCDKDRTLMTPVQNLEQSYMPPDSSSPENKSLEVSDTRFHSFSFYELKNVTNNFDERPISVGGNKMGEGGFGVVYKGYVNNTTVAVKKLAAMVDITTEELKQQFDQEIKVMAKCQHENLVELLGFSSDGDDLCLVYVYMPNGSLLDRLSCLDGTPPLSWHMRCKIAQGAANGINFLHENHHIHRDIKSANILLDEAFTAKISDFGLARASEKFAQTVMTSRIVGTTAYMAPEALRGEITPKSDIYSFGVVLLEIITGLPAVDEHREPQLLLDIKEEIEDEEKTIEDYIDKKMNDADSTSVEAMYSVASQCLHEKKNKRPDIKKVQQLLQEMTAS
# Procedure Summary: IRAK4 MSD Degradation in OCI-LY10
# Format: cell-based
# Recorded Conditions: OCI-LY10 cells, 4 hrs incubation, MSD; read-out: IRAK4 degradation in OCI-LY10 at 4 hrs: DC50
Here the recorded DC50 is given for each entry.
Parameter: DC50

[[record]]
compound = "CN(C[C@H]1CC[C@H](n2cc(NC(=O)c3cnn4ccc(N5CCC6(CC5)CC6)nc34)c(C(F)F)n2)CC1)C1CCN(c2cccc3c2n(C)c(=O)n3C2CCC(=O)NC2=O)CC1(F)F (stereo partly shown) [I-521]"
parameter = "DC50"
endpoint_value = "> 0.2 µM"

[[record]]
compound = "Cn1c(=O)n(C2CCC(=O)NC2=O)c2cccc(C#CCN3CCN(C[C@H]4CC[C@H](n5cc(NC(=O)c6cnn7ccc(N8CCCC(C)(C)C8)nc67)c(C(F)F)n5)CC4)CC3)c21 (stereo partly shown) [I-229]"
parameter = "DC50"
endpoint_value = "> 0.2 µM"

[[record]]
compound = "COCc1cncc(C(=O)Nc2cc3cn([C@H]4CC[C@H](CN5CCC6(CC5)CCN(c5cccc7c5n(C)c(=O)n7C5CCC(=O)NC5=O)CC6)CC4)nc3cc2OC)c1 (stereo partly shown) [I-191]"
parameter = "DC50"
endpoint_value = "0.01 to 0.1 µM"

[[record]]
compound = "Cn1c(=O)n(C2CCC(=O)NC2=O)c2cccc(N3CC(F)(F)C34CN(C[C@H]3CC[C@H](n5cc6cc(NC(=O)c7cccc(C(F)(F)F)n7)ccc6n5)CC3)C4)c21 (stereo partly shown) [I-499]"
parameter = "DC50"
endpoint_value = "> 0.2 µM"

[[record]]
compound = "COc1cc2nn([C@H]3CC[C@H](CN4CCC5(CC4)CCN(c4ccc(Cl)c(C6CCC(=O)NC6=O)c4)CC5)CC3)cc2cc1NC(=O)c1cncc(C#N)c1 (stereo partly shown) [I-255]"
parameter = "DC50"
endpoint_value = "> 0.2 µM"

[[record]]
compound = "Cn1c(=O)n(C2CCC(=O)NC2=O)c2cccc(N3CC(F)(CN4CCN(C[C@H]5CC[C@H](n6cc(NC(=O)c7cnn8ccc(N9C[C@H]%10CC9CO%10)nc78)c(C(F)F)n6)CC5)CC4)C3)c21 (stereo partly shown) [I-604]"
parameter = "DC50"
endpoint_value = "> 0.2 µM"

[[record]]
compound = "Cn1c(=O)n(C2CCC(=O)NC2=O)c2cccc(N3CC(O)(CN4CCN(C[C@H]5CC[C@H](n6cc(NC(=O)c7cnn8ccc(N9C[C@H]%10CC9CO%10)nc78)c(C(F)F)n6)CC5)CC4)C3)c21 (stereo partly shown) [I-605]"
parameter = "DC50"
endpoint_value = "> 0.2 µM"

[[record]]
compound = "Cc1cccc(C(=O)Nc2cc3cn([C@H]4CC[C@H](CN5CCC(c6cccc7c6n(C)c(=O)n7C6CCC(=O)NC6=O)C(F)(F)C5)CC4)nc3cc2C(C)(C)O)n1 (stereo partly shown) [I-617]"
parameter = "DC50"
endpoint_value = "> 0.2 µM"

[[record]]
compound = "Cn1c(=O)n(C2CCC(=O)NC2=O)c2cccc(C#CCOC3CCN(C[C@H]4CC[C@H](n5cc(NC(=O)c6cnn7ccc(N8C[C@H]9C[C@@H]8CO9)nc67)c(C(F)F)n5)CC4)CC3(F)F)c21 (stereo partly shown) [I-18]"
parameter = "DC50"
endpoint_value = "0.01 to 0.1 µM"

[[record]]
compound = "C[C@@H]1CN(C[C@H]2CC[C@H](n3cc(NC(=O)c4cnn5ccc(N6C[C@H]7C[C@@H]6CO7)nc45)c(C(F)F)n3)CC2)CCN1CC#Cc1cccc2c1n(C)c(=O)n2C1CCC(=O)NC1=O (stereo partly shown) [I-42]"
parameter = "DC50"
endpoint_value = "0.01 to 0.1 µM"


###

# Target Or Test System: IRAK4 (Homo sapiens)
# Construct: Degradation of IRAK4 in OCI-LY10 was quantitatively measured using Meso Scale Discovery technology; endogenous in cells; host or cells: OCI-LY10
# Sequence (Q9NWZ3 1-460): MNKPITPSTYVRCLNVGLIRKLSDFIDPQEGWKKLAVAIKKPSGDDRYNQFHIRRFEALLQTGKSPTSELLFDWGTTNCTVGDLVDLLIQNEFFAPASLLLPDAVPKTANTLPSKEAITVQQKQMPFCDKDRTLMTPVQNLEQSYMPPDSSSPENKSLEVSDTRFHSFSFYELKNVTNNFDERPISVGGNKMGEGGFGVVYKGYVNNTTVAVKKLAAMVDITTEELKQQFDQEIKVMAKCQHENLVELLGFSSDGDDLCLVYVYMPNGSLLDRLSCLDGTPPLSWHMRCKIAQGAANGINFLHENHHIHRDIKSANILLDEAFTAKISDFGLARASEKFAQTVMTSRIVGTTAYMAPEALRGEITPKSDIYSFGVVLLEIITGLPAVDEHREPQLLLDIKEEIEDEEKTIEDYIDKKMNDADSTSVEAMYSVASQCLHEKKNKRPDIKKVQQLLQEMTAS
# Procedure Summary: IRAK4 MSD Degradation in OCI-LY10
# Type: cell-based
# Recorded Conditions: OCI-LY10 cells, 4 hrs incubation, MSD; read-out: IRAK4 degradation in OCI-LY10 at 4 hrs: DC50
Listed here: items and their measured DC50.
Parameter: DC50

[[record]]
compound = "Cn1c(=O)n(C2CCC(=O)NC2=O)c2cccc(C3CCN(C[C@H]4CC[C@H](n5cc6cc(NC(=O)c7cccc(C(F)(F)F)n7)c(C#N)cc6n5)CC4)CC3F)c21 (some centres unmarked)"
endpoint_value = "> 200 nM"

[[record]]
compound = "Cn1c(=O)n(C2CCC(=O)NC2=O)c2cccc(N3CC4(CCN(C[C@H]5CC[C@H](n6cc(NC(=O)c7cnn8ccc(N9C[C@H]%10C[C@@H]9CO%10)nc78)c(C(F)F)n6)CC5)CC4(F)F)C3)c21 (some centres unmarked)"
endpoint_value = "> 200 nM"

[[record]]
compound = "Cn1c(=O)n(C2CCC(=O)NC2=O)c2cccc(N3CCC4(CCN(C[C@H]5CC[C@@H](n6cc(NC(=O)c7cnn8ccc(N9CC%10C[C@@H]9CO%10)nc78)c(C(F)F)n6)CC5)CC4)CC3)c21 (some centres unmarked)"
endpoint_value = "< 10 nM"

[[record]]
compound = "Cn1c(=O)n(C2CCC(=O)NC2=O)c2cccc([C@H]3CCN(C[C@H]4CC[C@H](n5cc6cc(NC(=O)c7cccc(C#N)n7)ccc6n5)CC4)C[C@@H]3F)c21 (some centres unmarked)"
endpoint_value = "> 200 nM"

[[record]]
compound = "O=C1CCN(c2cncc3c(C4CCN(C[C@H]5CC[C@H](n6cc7cc(NC(=O)c8cccc(C(F)(F)F)n8)ccc7n6)CC5)CC4(F)F)cccc23)C(=O)N1 (some centres unmarked) [I-469]"
endpoint_value = "> 200 nM"


###

# Target Or Test System: IRAK4 (Homo sapiens)
# Construct: Degradation of IRAK4 in OCI-LY10 was quantitatively measured using Meso Scale Discovery technology; endogenous in cells; host or cells: OCI-LY10
# Procedure Summary: IRAK4 MSD Degradation in OCI-LY10
# Assay type: cell-based
# Recorded Conditions: OCI-LY10 cells, 24 hrs incubation, MSD; read-out: IRAK4 degradation in OCI-LY10 at 24 hrs: DC50
Parameter: DC50

[[record]]
compound = "Cn1c(=O)n(C2CCC(=O)NC2=O)c2cccc(OC3CCN([C@H]4CC[C@H](n5cc6cc(NC(=O)c7cccc(C(F)(F)F)n7)ccc6n5)CC4)CC3(F)F)c21 (some centres unmarked)"
parameter = "DC50"
endpoint_value = "> 200 nM"

[[record]]
compound = "Cn1c(=O)n(C2CCC(=O)NC2=O)c2cccc(C3CCN(C4CCN([C@H]5CC[C@H](n6cc(NC(=O)c7cnn8ccc(N9C[C@H]%10C[C@@H]9CO%10)nc78)c(C(F)F)n6)CC5)CC4)CC3)c21 (some centres unmarked)"
parameter = "DC50"
endpoint_value = "> 200 nM"

[[record]]
compound = "Cn1c(=O)n(C2CCC(=O)NC2=O)c2cccc(CN3CCN(C[C@H]4CC[C@H](n5cc(NC(=O)c6cnn7ccc(N8CC9C[C@@H]8CO9)nc67)c(C(F)F)n5)CC4)CC3)c21 (some centres unmarked)"
parameter = "DC50"
endpoint_value = "> 200 nM"

[[record]]
compound = "CN1C(=O)CCC(n2c(=O)n(C)c3c(C#CCN4CCN(C[C@H]5CC[C@H](n6cc(NC(=O)c7cnn8ccc(N9C[C@H]%10C[C@@H]9CO%10)nc78)c(C(F)F)n6)CC5)CC4)cccc32)C1=O (some centres unmarked)"
parameter = "DC50"
endpoint_value = "> 200 nM"

[[record]]
compound = "[2H]C([2H])([2H])Oc1ccc2c(c1C1CCN(C[C@H]3CC[C@H](n4cc5cc(NC(=O)c6cccc(C(F)(F)F)n6)ncc5n4)CC3)CC1)n(C([2H])([2H])[2H])c(=O)n2C1CCC(=O)NC1=O (some centres unmarked)"
parameter = "DC50"
endpoint_value = "< 10 nM"

[[record]]
compound = "COc1cc2nn([C@H]3CC[C@H](CN4CCC5(CC4)CCN(c4cccc6c4n(C)c(=O)n6C4CCC(=O)NC4=O)CC5)CC3)cc2cc1NC(=O)c1cncc(S(C)(=O)=O)c1 (some centres unmarked)"
parameter = "DC50"
endpoint_value = "> 200 nM"

[[record]]
compound = "CN(C[C@H]1CC[C@H](n2cc(NC(=O)c3cnn4cccnc34)c(C(F)F)n2)CC1)C1CCN(c2cccc3c2n(C)c(=O)n3C2CCC(=O)NC2=O)CC1F (some centres unmarked)"
parameter = "DC50"
endpoint_value = "> 200 nM"

[[record]]
compound = "COC(C)(C)c1ccn2ncc(C(=O)Nc3cn([C@H]4CC[C@H](CN5CCN(CC#Cc6cccc7c6n(C)c(=O)n7C6CCC(=O)NC6=O)CC5)CC4)nc3C(F)F)c2n1 (some centres unmarked)"
parameter = "DC50"
endpoint_value = "> 200 nM"

[[record]]
compound = "Cn1c(=O)n(C2CCC(=O)NC2=O)c2cccc(C#CCN3CCN(C[C@H]4CC[C@H](n5cc(NC(=O)c6cnn7ccc(N8CCOC9(CCC9)C8)nc67)c(C(F)F)n5)CC4)CC3)c21 (some centres unmarked)"
parameter = "DC50"
endpoint_value = "< 10 nM"

[[record]]
compound = "Cc1ccn2ncc(C(=O)Nc3cn([C@H]4CC[C@H](CN5CCN(CC#Cc6cccc7c6n(C)c(=O)n7C6CCC(=O)NC6=O)CC5)CC4)nc3C(F)F)c2n1 (some centres unmarked)"
parameter = "DC50"
endpoint_value = "> 200 nM"

[[record]]
compound = "CN(C)c1ccn2ncc(C(=O)Nc3cn([C@H]4CC[C@H](CN(C)C5CCN(c6cccc7c6n(C)c(=O)n7C6CCC(=O)NC6=O)CC5(F)F)CC4)nc3C(F)F)c2n1 (some centres unmarked)"
parameter = "DC50"
endpoint_value = "10 to 100 nM"

[[record]]
compound = "O=C1CCN(c2cncc3c(C#CCO[C@@H]4CCN(C[C@H]5CC[C@H](n6cc(NC(=O)c7cnn8ccc(N9C[C@H]%10C[C@@H]9CO%10)nc78)c(C(F)F)n6)CC5)C[C@@H]4F)cccc23)C(=O)N1"
parameter = "DC50"
endpoint_value = "> 200 nM"

[[record]]
compound = "Cn1c(=O)n(C2CCC(=O)NC2=O)c2cccc(C#CCOC3CCN(C[C@H]4CC[C@H](n5cc(NC(=O)c6cccc(C(F)(F)F)n6)c(C(F)F)n5)CC4)CC3)c21 (some centres unmarked)"
parameter = "DC50"
endpoint_value = "> 200 nM"

[[record]]
compound = "O=C1CCN(c2cncc3c(C#CCO[C@@H]4CCN(C[C@H]5C[C@H](n6cc(NC(=O)c7cnn8ccc(N9C[C@H]%10C[C@@H]9CO%10)nc78)c(C(F)F)n6)C5)C[C@@H]4F)cccc23)C(=O)N1"
parameter = "DC50"
endpoint_value = "> 200 nM"

[[record]]
compound = "Cn1c(=O)n(C2CCC(=O)NC2=O)c2cccc(-c3cc(CN4CCn5cc(-n6cc(NC(=O)c7cnn8cccnc78)c(C(F)F)n6)cc5C4)ncn3)c21 (centres unmarked)"
parameter = "DC50"
endpoint_value = "> 200 nM"

[[record]]
compound = "Cn1c(=O)n(C2CCC(=O)NC2=O)c2cccc(C#CCOC3CCN(C[C@H]4CC[C@H](n5cc(NC(=O)c6cnn7ccc(N8CC9COCC9C8)nc67)c(C(F)F)n5)CC4)CC3)c21 (some centres unmarked)"
parameter = "DC50"
endpoint_value = "> 200 nM"

[[record]]
compound = "C[C@@H]1CN(C[C@H]2CC[C@H](n3cc(NC(=O)c4cnn5ccc(N6C[C@H]7C[C@@H]6CO7)nc45)c(C(F)F)n3)CC2)CC[C@H]1OCC#Cc1ccc2c(N3CCC(=O)NC3=O)cncc2c1"
parameter = "DC50"
endpoint_value = "> 200 nM"

[[record]]
compound = "Cc1cccc(C(=O)Nc2cc3cn([C@H]4CC[C@H](CN5CC[C@@H](c6cccc7c6n(C)c(=O)n7C6CCC(=O)NC6=O)[C@@H](F)C5)CC4)nc3cn2)n1 (some centres unmarked)"
parameter = "DC50"
endpoint_value = "> 200 nM"

[[record]]
compound = "Cn1c(=O)n(C2CCC(=O)NC2=O)c2cccc(C#CCN3CCN(C[C@H]4CC[C@H](n5cc(NC(=O)c6cnn7ccc(N8CCCC8(C)C)nc67)c(C(F)F)n5)CC4)CC3)c21 (some centres unmarked)"
parameter = "DC50"
endpoint_value = "10 to 100 nM"

[[record]]
compound = "Cn1c(=O)n(C2CCC(=O)NC2=O)c2cccc(C#CCN3CCN(C[C@H]4CC[C@H](n5cc(NC(=O)c6cnn7ccc(N8CCOC(C)(C)C8)nc67)c(C(F)F)n5)CC4)CC3)c21 (some centres unmarked)"
parameter = "DC50"
endpoint_value = "> 200 nM"


Origin of the recorded values: patent US12091411B2
